Tested on: Nucleic Acid
Assay: Binding affinity to Escherichia coli 23S rRNA U2506 assessed as degree of protection against CMCT at 50 uM by Chemical footprinting analysis relative to control
Type: nucleic-acid assay
MEASUREMENT LABEL: Ratio

Some solved entries appear below for comparison.
1. C=C[C@]1(C)C[C@@H](OC(=O)Cn2cc(CCCn3cnc4c(N)ncnc43)nn2)[C@]2(C)[C@H](C)CC[C@]3(CCC(=O)[C@H]32)[C@@H](C)[C@@H]1O : 0.05
2. C=C[C@]1(C)C[C@@H](OC(=O)Cn2cc(-c3cccc(-n4cnc5c(N)ncnc54)c3)nn2)[C@]2(C)[C@H](C)CC[C@]3(CCC(=O)[C@H]32)[C@@H](C)[C@@H]1O : 0.06

P = C=C[C@]1(C)C[C@@H](OC(=O)Cn2cc(COCn3cnc4c(N)ncnc43)nn2)[C@]2(C)[C@H](C)CC[C@]3(CCC(=O)[C@H]32)[C@@H](C)[C@@H]1O
Q = C=C[C@]1(C)C[C@@H](OC(=O)Cn2ccnn2)[C@]2(C)[C@H](C)CC[C@]3(CCC(=O)[C@H]32)[C@@H](C)[C@@H]1O
R = C=C[C@]1(C)C[C@@H](OC(=O)CSC(C)(C)CNC(=O)[C@H](N)C(C)C)[C@]2(C)[C@H](C)CC[C@]3(CCC(=O)[C@H]32)[C@@H](C)[C@@H]1O [VALNEMULIN]
Ordering criterion: Ratio; begin with the maximum. Sort the labels as requested; that list is your answer.
Q, P, R
(Q: 0.18, P: 0.06, R: 0.04)
